- procedure summary: Plasma pharmacokinetics after IP administration
- Assay type: in vivo
- setup conditions: male, Swiss, mouse, mice, dose 10 mg/Kg
parameter: Cmax (nM)
Give the value, in units of nM, as a plain number.

Noted for CCCN(c1nc(-c2nc(N)cc(N)n2)cs1)c1cc(-c2ccc(CCN3CCN(C)CC3)nc2)ccc1C : its Cmax reads 960

====

- Test system: CCRF-CEM cell line
- procedure summary: dCK cellular assay: CCRF-CEM proliferation in the presence of dT and dC
- Type: cell-based, human
- setup conditions: Homo sapiens, read-out: dCK CELLULAR ASSAY IC50 (nM); CCRF-CEM, 200 µM dT and 1 µM dC; read-out: dCK […] ASSAY IC50
Mark satisfied only for IC50 values smaller than 2000 nM; exact matches and larger values are not satisfied.

Cc1ccc(-c2ccc(CCCN3CCN(C)CC3)cc2)cc1Nc1nc(-c2nccc(N)n2)cs1 :: satisfied
CN1CCN(CCc2ccc(-c3ccc4c(c3)N(c3nc(-c5nccc(N)n5)cs3)CCCC4)cc2)CC1 :: satisfied
CCCN(c1nc(-c2nc(N)cc(N)n2)cs1)c1cc(-c2c(F)cc(S(=O)(=O)N3CCN(C)CC3)cc2F)ccc1C :: satisfied

Query :: Find out if reported IC50 for CCCN(c1nc(-c2nccc(N)n2)cs1)c1cc(-c2ccc(CCCN3CCN(C)CC3)cc2)ccc1C is less than 2000 nM
Result :: satisfied

Query :: Find out if reported IC50 for CCCN(c1nc(-c2nc(N)cc(N)n2)cs1)c1cc(-c2ccc(S(=O)(=O)N3CCN(C)CC3)cc2F)ccc1C is less than 2000 nM
Result :: satisfied

Query :: Find out if reported IC50 for Cc1ccc(NC(=O)c2ccc(CN3CCN(C)CC3)s2)cc1Nc1nc(-c2nccc(N)n2)cs1 is less than 2000 nM
Result :: not satisfied

====

Consider the following compounds and their measured half-life readings.
- procedure summary: Plasma pharmacokinetics after IP administration
- Type: in vivo
- setup conditions: male, Swiss, mouse, mice, read-out: half-life

CCCN(c1nc(-c2nc(N)cc(N)n2)cs1)c1cc(-c2ccc(S(=O)(=O)N3CCN(C)CC3)cc2C(F)(F)F)ccc1C :: > 7 h

Now, please, on to the next compound.
Noted for CCCN(c1nc(-c2nc(N)cc(N)n2)cs1)c1cc(-c2ccc(S(=O)(=O)N3CCN(C)CC3)c(OC)c2)ccc1C : its half-life reads > 5 h

====

Consider the following compounds and their measured Enzymatic activity (ATP) Mean (% activity) readings.
- Test system: dCK-C3S-S74E
- Sequence (P27707 whole entry S74E, form open): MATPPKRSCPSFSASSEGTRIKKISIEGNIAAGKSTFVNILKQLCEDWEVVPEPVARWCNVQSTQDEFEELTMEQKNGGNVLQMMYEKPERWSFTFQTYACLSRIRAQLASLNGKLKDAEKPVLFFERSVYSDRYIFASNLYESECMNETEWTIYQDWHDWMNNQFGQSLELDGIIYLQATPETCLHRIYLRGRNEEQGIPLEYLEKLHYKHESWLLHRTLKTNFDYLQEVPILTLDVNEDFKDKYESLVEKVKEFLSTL
- procedure summary: Enzymatic assay (PK/LDH coupled), dC phosphorylation by dCK in the presence of ATP
- Assay type: biochemical, human
- setup conditions: 0.63 µM
- Experimental: For enzymatic assays, cells were re-suspended in 20 mM TRIS, pH 8 500 mM NaCl, 0.1% BRIJ-35 and 5% glycerol buffer and one EDTA free anti-protease tablet was added (Roche). […] Kinetic analyses were performed using a spectrophotometric continuous enzymatic-coupled assay using pyruvate kinase (PK) and lactate dehydrogenase (LDH). […] All measurements were performed on a microplate reader Pherastar FS (BMG Labtech). […]
Give the value, in units of %, as a plain number.

Cc1ccc(NC(=O)c2ccc(CN3CCN(C)CC3)cc2)cc1Nc1nc(-c2nccc(N)n2)cs1 :: 91.7
CCCN(c1nc(-c2nc(N)cc(N)n2)cs1)c1cc(-c2ccc(CCN3CCN(C)CC3)cc2)ccc1C :: 0.0484
CCCN(c1nc(-c2nc(N)cc(N)n2)cs1)c1cc(-c2ccc(CCN3CCN(C)CC3)nc2)ccc1C :: 4.3
Cc1ccc(-c2ccc(CN3CCN(C)CC3)cc2)cc1Nc1nc(-c2nccc(N)n2)cs1 :: 62.9
CCCN(c1nc(-c2nccc(N)n2)cs1)c1cc(-c2ccc(CCN3CCN(C)CC3)cc2)ccc1C :: 22.9

Now, please, on to the next compound.
Form field Enzymatic activity (ATP) Mean (% activity) for item Cc1ccc(-c2ccc(CCN3CCN(C)CC3)cc2)cc1Nc1nc(-c2nccc(N)n2)cs1 on dCK-C3S-S74E: 56.4

Cited source: paper PMC10227015
